# tgt: T1, recombinant human CEACAM-1/CD66a protein (R&D systems; Cat. No. 2244-CM) (human, UniProt P13688 35-428)
# T1 construct: Bought protein; captured on anti-His (His1K) biosensors in the Octet assay, so it carries a His tag; also called HCCM1; recombinant CEACAM-1/CD66a protein
# T1 sequence (looked up): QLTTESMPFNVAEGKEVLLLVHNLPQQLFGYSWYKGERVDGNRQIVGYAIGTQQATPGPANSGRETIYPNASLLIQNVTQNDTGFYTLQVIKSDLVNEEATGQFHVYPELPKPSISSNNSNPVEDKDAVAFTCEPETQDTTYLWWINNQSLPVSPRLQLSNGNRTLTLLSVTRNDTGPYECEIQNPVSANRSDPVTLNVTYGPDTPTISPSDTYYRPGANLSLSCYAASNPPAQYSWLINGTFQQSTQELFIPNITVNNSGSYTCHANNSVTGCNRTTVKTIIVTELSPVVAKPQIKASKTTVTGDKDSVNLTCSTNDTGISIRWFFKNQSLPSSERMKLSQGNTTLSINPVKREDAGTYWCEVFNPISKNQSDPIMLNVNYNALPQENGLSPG
# testProtocol: Octet QKe biolayer interferometry, anti-His (HIS1K) biosensors, antibody 6.25-400 nM

# binder, resultUnit, kon
records = [
    ("4R9_H4-n20 (antibody, human IgG4 S228P, lambda, V domains shown, also called C25-derived clone 4R9_H4-n20) VH: EVQLLESGGGLVQPGGSLRLSCAASGFNFSNYAMSWVRQAPGKGLEWVSVISHGGGSIYYADSVKGRLTISRDNSKNTLYLQMNSLRAEDTAVYYCARDPTKGYAPTFDYWGQGTLVTVSS VL: QSVLTQPPSASGTPGQRVTISCSGSSSNIGNNYVSWYQQLPGTAPKLLIYADSRRPSGVPDRFSGSKSGTSASLAISGLRSEDEADYYCGAWDLSLNGYVFGGGTKLTVLG", "M⁻¹ s⁻¹", 26100),
    ("4R9_H4-n20HC+4R26LC (antibody, human IgG4 S228P, lambda, V domains shown) VH: EVQLLESGGGLVQPGGSLRLSCAASGFNFSNYAMSWVRQAPGKGLEWVSVISHGGGSIYYADSVKGRLTISRDNSKNTLYLQMNSLRAEDTAVYYCARDPTKGYAPTFDYWGQGTLVTVSS VL: QSVLTQPPSASGTPGQRVTISCSGSSSNIGNNYVSWYQQLPGTAPKLLIYADSKRLSGVPDRFSGSKSGTSASLAISGLRSEDEADYYCGAWDGRLNGYVFGGGTKLTVLG", "M⁻¹ s⁻¹", 19000),
    ("4R26 (antibody, human IgG4 S228P, lambda, V domains shown, also called C25-derived clone 4R26) VH: EVQLLESGGGLVQPGGSLRLSCAASGFTFSNYAMSWVRQAPGKGLEWVSVISHGGGSIYYADSVKGRLTISRDNSKNTLYLQMNSLRAEDTAVYYCARDPTKGYAPTFDYWGQGTLVTVSS VL: QSVLTQPPSASGTPGQRVTISCSGSSSNIGNNYVSWYQQLPGTAPKLLIYADSKRLSGVPDRFSGSKSGTSASLAISGLRSEDEADYYCGAWDGRLNGYVFGGGTKLTVLG", "M⁻¹ s⁻¹", 133000),
    ("C25 (antibody, human IgG4 S228P, lambda, V domains shown, Made in ExpiHEK293F cells, protein A purified. huIgG4 is the isotype control and anti-huIgG4 the detection reagent; the isotype is not otherwise stated; also called anti-CEACAM1 antibody C25) VH: EVQLLESGGGLVQPGGSLRLSCAASGFTFSNYAMSWVRQAPGKGLEWVSVISHGGGSIYYADSVKGRLTISRDNSKNTLYLQMNSLRAEDTAVYYCARDPTKGYAPTFDYWGQGTLVTVSS VL: QSVLTQPPSASGTPGQRVTISCSGSSSNIGNNYVSWYQQLPGTAPKLLIYADSKRPSGVPDRFSGSKSGTSASLAISGLRSEDEADYYCGAWDASLNGYVFGGGTKLTVLG", "M⁻¹ s⁻¹", 18200),
    ("4R9_H2-2 (antibody, human IgG4 S228P, lambda, V domains shown, also called C25-derived clone 4R9_H2-2) VH: EVQLLESGGGLVQPGGSLRLSCAASGFTFSNYAMSWVRQAPGKGLEWVSVISHGGGSIYYADSVKGRLTISRDNSKNTLYLQMNSLRAEDTAVYYCARDPTKGYAPLFDYWGQGTLVTVSS VL: QSVLTQPPSASGTPGQRVTISCSGSSSNIGNNYVSWYQQLPGTAPKLLIYADSRRPSGVPDRFSGSKSGTSASLAISGLRSEDEADYYCGAWDLSLNGYVFGGGTKLTVLG", "M⁻¹ s⁻¹", 169000),
    ("4R9 (antibody, human IgG4 S228P, lambda, V domains shown, also called C25-derived clone 4R9) VH: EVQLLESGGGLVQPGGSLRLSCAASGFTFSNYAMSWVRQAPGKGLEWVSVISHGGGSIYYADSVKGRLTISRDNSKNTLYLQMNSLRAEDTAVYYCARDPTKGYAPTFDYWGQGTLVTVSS VL: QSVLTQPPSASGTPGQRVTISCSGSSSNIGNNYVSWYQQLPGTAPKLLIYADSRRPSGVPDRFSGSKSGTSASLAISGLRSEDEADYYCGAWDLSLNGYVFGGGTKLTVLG", "M⁻¹ s⁻¹", 163000),
]
